protein stability index values by entry
B1: NEK8 (parent)
chain: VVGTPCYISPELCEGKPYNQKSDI

- Variants of: B1
- procedure.summary: protein stability index of a GFP-peptide fusion (GPS, HEK-293T) (PSI 1-6); higher = more stable;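 note: lentivirally expressed fusions sorted by FACS into six bins by GFP to DsRed ratio, PSI derived from sequencing read proportions per bin multiplied by bin number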
- study.conditions: c terminus: a fixed tail appended
Lab note: jot the number down without any unit.

>>> number("I8P")
4.29
>>> number("G15V")
3.14

Any idea what its protein stability index is? The variant is K16Q
2.79

Any idea what its protein stability index is? The variant is D23H
2.94

Any idea what its protein stability index is? The variant is Y7N
4.52

Any idea what its protein stability index is? The variant is P5S
3.36

Any idea what its protein stability index is? The variant is I8V
4.03

Any idea what its protein stability index is? The variant is T4M
2.78

Any idea what its protein stability index is? The variant is N19Y
2.39

Any idea what its protein stability index is? The variant is Y7V
4.04

Any idea what its protein stability index is? The variant is I24L
2.79

Any idea what its protein stability index is? The variant is Y18P
3.4

Any idea what its protein stability index is? The variant is C13N
3.23

Any idea what its protein stability index is? The variant is S9Y
1.55

Any idea what its protein stability index is? The variant is K16D
3.14
